# reported switch fluorescence ratio; entries follow
test system: ATP; assay: switch fluorescence ratio, 500 uM ATP over buffer (Cy3 cluster intensity, sum of 5 cycles each) (fold (ratio)); higher = stronger signal-on switching upon ATP binding; sequences stand for … in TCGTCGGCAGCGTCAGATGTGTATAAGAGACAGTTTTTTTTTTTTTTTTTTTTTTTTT…TC; conditions: aptamer strand: ATP DNA aptamer (quencher-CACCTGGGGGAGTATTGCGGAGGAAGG + anchor), 100 nM annealed; ATP concentration: 500 uM;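 further: ATP exposure 15 min at 22 °C before imaging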
OUTCOME MEASURE: switch fluorescence ratio

SEQ	TEST VALUE
AGGTGTCGTC	0.975
ATCAAAATTT	1.03
TAAGTTAGGT	1.03
CCAGAGAGCC	1.04
GTGGTATCAT	0.978
GAGACGGGGG	1.02
TGGGGAAATG	0.997
GCGTACGGCG	0.993
GAGAATTATG	0.993
TTTTTTGGCT	0.995
GTGTTAGCTA	1
CGGCAAGTAT	1.06
TAGGAGGCTA	0.976
TTTCCTGGCT	1.02
GGCCTACCGC	1.13
TATAAAGGTG	1.11
TCCGGGCTGG	1.02
AAGGGGTCTA	1
TGGTGGCCGG	1.02
TTTAAGTGGT	0.998

Cited source: the supplement of paper PMC10126150
